Target: UniProt P08246
Sequence (P08246 30-267): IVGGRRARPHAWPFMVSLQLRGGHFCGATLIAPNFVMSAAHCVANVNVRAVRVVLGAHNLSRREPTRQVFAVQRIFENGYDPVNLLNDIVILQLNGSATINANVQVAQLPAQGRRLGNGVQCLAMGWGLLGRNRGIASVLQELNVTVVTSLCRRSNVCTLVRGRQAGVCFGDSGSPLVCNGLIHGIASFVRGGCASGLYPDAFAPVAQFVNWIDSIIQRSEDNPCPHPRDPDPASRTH
Assay: in vitro human leukocyte elastase inhibiting activity (fluorogenic substrate, method of JP-A-2-101017 with slight modification)
Assay type: biochemical
Conditions: 50% inhibitory concentration; substrate methoxysuccinyl-Ala-Ala-Pro-Val-7-amido-4-methylcoumarin; 0.2 M Tris-hydrochloride buffer (0.02 M CaCl2, 0.005% Triton X-100), pH 7.2; compound and enzyme incubated at 25°C for 20 minutes; read-out: IC50
Readout name: pIC50
// pIC50 is dimensionless: -log10 of concentration (M)

Example entries begin here.
1. C=C(C)C(=O)Nc1ccc(C(=O)Oc2cc(Cl)cc(Cl)c2)cc1 [Compound 14] :: 8.46
2. CC(C)(CCl)C(=O)Nc1ccc(C(=O)Oc2cc(Cl)cc(Cl)c2)cc1 [Compound 45] :: 7.74
3. CC(C)C(=O)Nc1ccc(C(=O)Oc2ccccc2[N+](=O)[O-])cc1 [Compound 48] :: 7.80
4. CC(C)C(=O)Nc1ccc(C(=O)Oc2c(Cl)cccc2Cl)cc1 [Compound 66] :: 7.03
5. COC(=O)c1ccc(Cl)cc1OC(=O)c1ccc(NC(=O)C(C)C)cc1 [Compound 63] :: 7.01
6. CC(C)C(=O)Nc1ccc(C(=O)Oc2cccc(OC(F)(F)F)c2)cc1 [Compound 89] :: 6.40

Okay, next one:
Data request: Data request, read-out pIC50, for CSC(C)C(=O)Nc1ccc(C(=O)Oc2cc(Cl)cc(Cl)c2)cc1 (stereo not shown) [Compound 38]
Data returned: 7.74

Source of measurements: patent EP0475531A1
